experimentalTarget: ErbB2 (h) (Homo sapiens, UniProt P04626)
Sequence (P04626 23-1255): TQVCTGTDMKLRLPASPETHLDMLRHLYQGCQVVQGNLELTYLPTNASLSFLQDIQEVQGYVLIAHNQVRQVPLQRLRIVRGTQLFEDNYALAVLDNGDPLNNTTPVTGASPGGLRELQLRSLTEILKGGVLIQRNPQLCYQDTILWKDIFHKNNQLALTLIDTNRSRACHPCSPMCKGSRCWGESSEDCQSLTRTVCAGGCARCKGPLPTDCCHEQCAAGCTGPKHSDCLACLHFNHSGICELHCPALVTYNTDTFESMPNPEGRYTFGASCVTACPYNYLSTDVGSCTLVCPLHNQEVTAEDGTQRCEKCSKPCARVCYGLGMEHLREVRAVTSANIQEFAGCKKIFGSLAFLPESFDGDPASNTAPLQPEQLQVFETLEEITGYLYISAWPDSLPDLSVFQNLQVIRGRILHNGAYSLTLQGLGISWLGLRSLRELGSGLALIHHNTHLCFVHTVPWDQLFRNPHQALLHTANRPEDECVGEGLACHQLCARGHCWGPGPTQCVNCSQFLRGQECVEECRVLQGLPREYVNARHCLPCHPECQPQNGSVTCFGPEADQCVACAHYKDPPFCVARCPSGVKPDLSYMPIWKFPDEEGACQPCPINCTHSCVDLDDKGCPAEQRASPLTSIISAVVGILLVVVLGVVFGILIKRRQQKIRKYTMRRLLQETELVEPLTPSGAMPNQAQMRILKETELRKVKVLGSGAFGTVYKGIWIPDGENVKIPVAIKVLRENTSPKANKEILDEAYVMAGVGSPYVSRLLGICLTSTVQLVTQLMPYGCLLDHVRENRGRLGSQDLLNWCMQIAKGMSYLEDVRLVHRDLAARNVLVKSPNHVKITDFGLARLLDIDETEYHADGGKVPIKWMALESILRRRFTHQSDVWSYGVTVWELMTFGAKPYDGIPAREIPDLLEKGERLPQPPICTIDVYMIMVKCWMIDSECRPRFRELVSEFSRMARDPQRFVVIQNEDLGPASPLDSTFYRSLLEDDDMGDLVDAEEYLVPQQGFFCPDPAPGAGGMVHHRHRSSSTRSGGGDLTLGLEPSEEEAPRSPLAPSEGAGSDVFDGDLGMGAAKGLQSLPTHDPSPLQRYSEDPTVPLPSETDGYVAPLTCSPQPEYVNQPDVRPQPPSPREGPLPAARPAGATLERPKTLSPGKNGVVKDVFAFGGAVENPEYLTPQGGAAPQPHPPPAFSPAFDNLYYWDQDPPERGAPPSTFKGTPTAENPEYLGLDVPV
Kindly supply the reported IC50 values for the records listed here.

Below is a list of compounds. For each, state its recorded IC50.
1. O=C1COc2cccc(c2)Nc2cc(ncn2)Nc2cccc(c2)CCN1 [Compound 160]
2. COc1ccc2cc1OCCNC(=O)C(Cc1ccc(C(F)(F)F)cc1)NC(=O)CN(C)Cc1cccc(c1)Nc1cc(ncn1)N2 (stereo not shown) [Compound 114]
3. O=C1CN2CCN(CC2)Cc2cccc(c2)Nc2cc(ncn2)Nc2cccc(c2)CCN1 [Compound 164]

(A)
1000 to 10000 nM
1000 to 10000 nM
1000 to 10000 nM

Below is a list of compounds. For each, state its recorded IC50.
1. COc1ccc2cc1OCCNC(=O)COc1cccc(c1)Nc1cc(ncn1)N2 [Compound 162]
2. CCN1CCNC(=O)COc2cccc(c2)Nc2cc(ncn2)Nc2cccc(c2)C1 [Compound 161]
3. O=C1COc2cccc(c2)Nc2cc(ncn2)Nc2cccc(c2)OCCCCCN1 [Compound 163]
4. CC(C)CC1NC(=O)CN(C)Cc2cccc(c2)Nc2cc(ncn2)Nc2cccc(c2)CNC1=O (stereo not shown) [Compound 149]
5. CN1CC(=O)N2CCC2C(=O)NCc2cccc(c2)Nc2cc(ncn2)Nc2cccc(c2)C1 (stereo not shown) [Compound 151]

(A)
1: 1000 to 10000 nM; 2: 1000 to 10000 nM; 3: < 1000 nM; 4: 1000 to 10000 nM; 5: < 1000 nM

Below is a list of compounds. For each, state its recorded IC50.
1. CCN1CCNC(=O)C(Cc2ccc(C(F)(F)F)cc2)NC(=O)CN(C)Cc2cccc(c2)Nc2cc(ncn2)Nc2cccc(c2)C1 (stereo not shown) [Compound 156]
2. O=C1CN2CCN(CC2)Cc2cccc(c2)Nc2cc(ncn2)Nc2cccc(c2)OCCCCCN1 [Compound 112]
3. COc1ccc2cc1OCCNC(=O)C1CN(CCO1)C(=O)CN(C)Cc1cccc(c1)Nc1cc(ncn1)N2 (racemic) [Compound 158]
4. C#CCC1NC(=O)CN(C)Cc2cccc(c2)Nc2cc(ncn2)Nc2cccc(c2)CNC1=O (stereo not shown) [Compound 150]

(A)
["1000 to 10000 nM", "< 1000 nM", "1000 to 10000 nM", "< 1000 nM"]

(Q) I have this compound here, CCN1CCNC(=O)C(CC(C)C)NC(=O)CN(C)Cc2cccc(c2)Nc2cc(ncn2)Nc2cccc(c2)C1 (stereo not shown) [Compound 154] , and I need its recorded IC50.
(A) 1000 to 10000 nM

====

experimentalTarget: Lck (h) (Homo sapiens, UniProt P06239)
Sequence (P06239 whole entry): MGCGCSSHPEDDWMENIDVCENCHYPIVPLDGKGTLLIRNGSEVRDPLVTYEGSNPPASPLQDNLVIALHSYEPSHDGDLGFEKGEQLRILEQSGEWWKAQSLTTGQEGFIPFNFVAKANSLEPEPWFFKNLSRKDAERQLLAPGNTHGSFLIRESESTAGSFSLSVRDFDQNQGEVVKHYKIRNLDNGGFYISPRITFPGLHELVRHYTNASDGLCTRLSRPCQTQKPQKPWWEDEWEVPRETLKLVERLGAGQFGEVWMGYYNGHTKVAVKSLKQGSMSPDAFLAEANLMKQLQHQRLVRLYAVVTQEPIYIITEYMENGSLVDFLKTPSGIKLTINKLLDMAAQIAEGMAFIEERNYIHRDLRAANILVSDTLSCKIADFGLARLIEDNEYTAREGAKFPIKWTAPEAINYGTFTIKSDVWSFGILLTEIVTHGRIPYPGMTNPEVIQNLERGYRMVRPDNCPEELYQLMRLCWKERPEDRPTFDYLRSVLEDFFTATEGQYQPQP
experimentalProtocol: Lck human kinase assay (glass-fiber filter)
Type: biochemical
runConditions: test concentration of 10^−6M; read-out: C9 score (inhibition of Lck human)
Kindly supply the reported inhibition at 1 µM values for the records listed here.

Past entries and their recorded results:
{"chemicalString": "O=C1COc2cccc(c2)Nc2cc(ncn2)Nc2cccc(c2)CN2CCN1CC2", "experimentalTarget": "Lck (h) (Homo sapiens, UniProt P06239)", "result": "30 to 60%"}
{"chemicalString": "COc1ccc2cc1OCCNC(=O)CNC(=O)Cc1ccc(Cl)cc1Nc1cc(ncn1)N2", "experimentalTarget": "Lck (h) (Homo sapiens, UniProt P06239)", "result": "> 80%"}
{"chemicalString": "O=C1NCCCCCOc2cccc(c2)Nc2ccnc(n2)Nc2cccc1c2", "experimentalTarget": "Lck (h) (Homo sapiens, UniProt P06239)", "result": "10 to 30%"}

Below is a list of molecules. For each, state its recorded inhibition at 1 µM.
1. COc1ccc2c(c1)OCCCCCCOc1ccc(Cl)cc1Nc1cc(ncn1)N2
2. O=C1COc2cccc(c2)Nc2nccc(n2)Nc2cccc(c2)OCCCCN1
3. O=C1NCCCCCCOc2cccc(c2)Nc2ccnc(n2)Nc2cccc1c2
4. O=C1NCCCCOc2cccc(c2)Nc2ccnc(n2)Nc2cccc1c2
5. N#Cc1cnc2nc1Nc1cccc(c1)OCCCNC(=O)COc1cccc(c1)N2

(A)
1. 10 to 30%
2. 30 to 60%
3. 30 to 60%
4. 30 to 60%
5. 30 to 60%

Below is a list of molecules. For each, state its recorded inhibition at 1 µM.
1. N#Cc1cnc2nc1Nc1cccc(c1)OCC(=O)NCCOc1cccc(c1)N2
2. N#Cc1cnc2nc1Nc1cccc(c1)C(=O)NCCOc1cccc(c1)N2
3. N#Cc1cnc2nc1Nc1cccc(c1)OCC(=O)NCCCCOc1cccc(c1)N2

(A)
["30 to 60%", "10 to 30%", "10 to 30%"]

Below is a list of molecules. For each, state its recorded inhibition at 1 µM.
1. O=C1NCc2cccc(c2)Nc2ccnc(n2)Nc2cccc1c2
2. COc1ccc2cc1OCCCNC(=O)C(C)(C)NC(=O)Cc1ccc(Cl)cc1Nc1cc(ncn1)N2
3. O=C1COc2cccc(c2)Nc2nccc(n2)Nc2cccc(c2)OCCCN1
4. COc1ccc2cc1OCCCNCCOc1ccc(Cl)cc1Nc1cc(ncn1)N2
5. CC1(C)NC(=O)Cc2ccc(Cl)cc2Nc2cc(ncn2)Nc2ccc(OCCCN3CCOCC3)c(c2)OCCNC1=O
6. N#Cc1cnc2nc1Nc1cccc(c1)OCCCCOc1cccc(c1)N2

(A)
1: 30 to 60%; 2: > 80%; 3: 30 to 60%; 4: 30 to 60%; 5: > 80%; 6: 30 to 60%

Below is a list of molecules. For each, state its recorded inhibition at 1 µM.
1. O=C1CCc2cccc(c2)Nc2cc(ncn2)Nc2cccc(c2)CN2CCN1CC2
2. N#Cc1cnc2nc1Nc1cccc(c1)C(=O)NCCCCCOc1cccc(c1)N2

(A)
1. 10 to 30%
2. 10 to 30%

(Q) I have this molecule here, `N#Cc1cnc2nc1Nc1cccc(c1)OCC(=O)NCCCOc1cccc(c1)N2` , and I need its recorded inhibition at 1 µM.
(A) 30 to 60%
